Values from patent US20060062783A1

# test_system: T1, Human PTH (1-34) (human, not fully specified)
# T1 construct: Synthetic peptide bought from Bachem; also called hPTH (1-34); human 34mer
# T1 peptide: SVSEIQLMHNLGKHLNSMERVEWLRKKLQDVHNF
# assay_notes: BiaCore, 25° C., 34mer
pKd: −log10 of the molar value.
The threshold is inclusive: pKd of exactly 9 counts as Y; values below receive N.

Below, 3 binders whose answers are already recorded.
anti-PTH mAb 026 (antibody, IgG2, V domains shown, also called AB-PTH-XG2-026; well 126B1) VH: QVQLVESGGGVVQPGRSLRLSCAASGFTFSSYGMHWVRQAPGKGLDWVAVISYDGSNKFYADSVKGRFTISRDNSKNTLYLQMNSLRAEDTAVYYCARDHWELLDYWGQGTLVTVSS VL: DIVMTQTPLSLSVTPGQPASISCKSSQSLLDSDGKTYLYWYLQRSGQPPQLLIHEVSNRFSGVPYRFIGSGSGTDFTLKISRVEAEDVGAYYCMQGKQFPFIFGPGTKVDIK :: N
anti-PTH mAb 168 (antibody, human IgG2, V domains shown, also called XG2-168; AB-PTH-XG2-168) VH: EVQLVQSGAEVKKPGESLKISCKGSRYIFTNYWIGWVRQMPGKGLEWMGIIYPGDSDTRYSPSFQGQVTISADMSISTAYLQWSSLKASDTAMYYCARQGDYVWGSFDSWGQGTLVTVSS VL: DIVMTQTPLSLSVTPGQPASISCKSSQSLLDSDGKTYLYWYLQKPGQPPQLLIYEVSNRFSGVPDRFSGSGSGTDFTLKISRVEAEDVGVYYCMQSIQLWTFGQGTKVEIK :: N
anti-PTH mAb 183 (antibody, human IgG2, V domains shown) VH: EVQLVQSGAEVKKPGESLKISCKGSGYSFTSYWIGWVRQMPGKGLEWMGIISPGDSDTRYSPSFQGQVTISADKSISTAYLQWSSLKASDTAMYYCARQGDYVWGSYDSWGQGTLVTVSS VL: DIVMTQTPLSLSVTPGRPASISCKSSQSLLDSDGKTYLYWYLQKPGQPPQLLIYEVSNRFSGVPDRFSGSGSGTDFTLRISRVEAEDVGIYFCMPSIHLWTFGQGTKVEIK :: Y

Qu. Determine whether this binder has pKd no lower than 9: anti-PTH mAb 168g2/183k (antibody, V domains shown) VH: EVQLVQSGAEVKKPGESLKISCKGSRYIFTNYWIGWVRQMPGKGLEWMGIIYPGDSDTRYSPSFQGQVTISADMSISTAYLQWSSLKASDTAMYYCARQGDYVWGSFDSWGQGTLVTVSS VL: DIVMTQTPLSLSVTPGRPASISCKSSQSLLDSDGKTYLYWYLQKPGQPPQLLIYEVSNRFSGVPDRFSGSGSGTDFTLRISRVEAEDVGIYFCMPSIHLWTFGQGTKVEIK
Ans. Y
